Measured mortality at 5 ppm, listed per entry.
Tested on: Diamond Back Moth (Plutella xylostella)
Test: Test Example 1: insecticidal effect on diamond back moth, immersion of Chinese cabbage seedling bearing eggs
Format: in vivo
Details: Plutella xylostella, 144 h; 5 ppm; seedling with eggs immersed about 30 seconds; counted six days after immersion; 25° C.; read-out: Test Example 1 insecticidal effect (mortality criterion)
The answer is to be given in %; state only the numeric part.

Answered examples (2):
Cc1cc(I)ccc1NC(=O)c1cccc(I)c1C(=O)NC(C)(C)CS(C)(=O)=O [compound 32]    100
Cc1cc(I)ccc1NC(=O)c1cccc(I)c1C(=O)NC(C)(C)C[S+](C)[O-] (centres unmarked) [compound 31]    100

Kindly review the next compound as well.
Recorded result, CSCC(C)(C)NC(=O)c1c(I)cccc1C(=O)Nc1ccc(I)cc1C [compound 30] , mortality at 5 ppm: 100
